EXPERIMENT_SUMMARY: Inhibition of Sprague-Dawley rat brain FTase by continuous fluorescence assay
In this section we review reported pIC50 values for a set of molecules.
Scale: negative log10 of molar concentration, which is what pIC50 denotes.

MOLECULE | ENDPOINT_LABEL | REPORTED_MEASUREMENT
CSCC[C@H](NC(=O)[C@H](Cc1ccccc1)NC[C@@H](NC[C@@H](N)CS)C(C)C)C(=O)O | pIC50 | 7.47
COC(=O)[C@H](CCSC)N(C(=O)c1ccccc1)C1CCN(Cc2cncn2Cc2ccc(C)cc2)CC1 | pIC50 | 6.22

Query block: Suppose we examine the molecule CSCC[C@@H](C(=O)O)N(C(=O)c1ccccc1)C1CCN(Cc2cncn2Cc2ccc(C#N)cc2)CC1 ; what pIC50 value has been reported?
Result block: 8.00

Query block: Suppose we examine the molecule COC(=O)[C@H](CCSC)N(C(=O)c1ccccc1)C1CCN(C(=O)C(N)CS)CC1 (some centres undefined) ; what pIC50 value has been reported?
Result block: 7.64
